- target-under-test: T1, LanCL1 Wild Type (human LanC-like protein 1) (human, UniProt O43813 1-399)
- T1 construct: LanC-like protein 1 (LanCL1), human; also called LanCL1 WT; WT-LanCL1; source: E. coli Rosetta 2 (DE3), purified (HisTrap Ni-NTA, PD-10 desalting)
- T1 sequence (O43813 whole entry): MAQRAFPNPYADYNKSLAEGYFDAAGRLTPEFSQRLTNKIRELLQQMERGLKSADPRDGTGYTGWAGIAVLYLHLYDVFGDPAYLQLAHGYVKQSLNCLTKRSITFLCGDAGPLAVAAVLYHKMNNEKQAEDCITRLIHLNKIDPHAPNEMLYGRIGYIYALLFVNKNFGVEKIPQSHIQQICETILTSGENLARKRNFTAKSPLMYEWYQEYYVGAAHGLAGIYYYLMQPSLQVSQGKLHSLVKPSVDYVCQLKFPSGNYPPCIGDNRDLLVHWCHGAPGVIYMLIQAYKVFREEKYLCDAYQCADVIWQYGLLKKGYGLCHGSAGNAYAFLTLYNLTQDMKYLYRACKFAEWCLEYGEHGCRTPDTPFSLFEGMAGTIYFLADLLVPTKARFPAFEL
- measurement-protocol: fluorescence polarisation; LanCL1 or variant titrated (highest 400 μM, 300 μM for some variants) against 20 nM fluorescein-peptide; 0.5 mM TCEP, 0.1 mM ZnCl2, 150 mM NaCl, 100 mM Tris pH 7.5, no GSH; 15 min incubation; triplicates
- cond: both partners purified
Ends that are not written are not given here.
reported-property: Kd

Consider the binder DHTGFLAEYVATR (also: fluorescein label, end not given here, Numbers count on: the synthetic 13-mer; Its preparation is not described; also called Flu-Ala-Erk; fluorescein-Ala-Erk) [fluorescein-labeled Ala-Erk peptide] and give its recorded Kd. > 133 µM
